target: T1, IGF1R-Fc (extracellular domain of human IGF1R aa 1-932 fused to hinge and constant regions of human IgG1) (human, UniProt P08069 31-932)
T1 construct: range 1-932; made in house by transient transfection, purified on Protein A; also called IGF-IR-Fc; not shown: hinge and constant regions of human IgG1
pKd: −log10 of the molar value.
measurement-name: pKd

[[record]]
binder = "E3-GS10-I1, non-pegylated (designed binder) VSDVPRDLEVVAATPTSLLISWLPGKLRYQYYRITYGETGGNSPVQEFTVPHDLRTATISGLKPGVDYTITVYAVTNMMHVEYSEYPISINYRTEIDKGSGSGSGSGSGSGSGSGSGSVSDVPRDLEVVAATPTSLLISWSARLKVARYYRITYGETGGNSPVQEFTVPKNVYTATISGLKPGVDYTITVYAVTRFRDYQPISINYRTEIDKPSQ"
endpoint_result = 9.92

